tested on: Penicillium funiculosum ATCC 36839; assay: MIC values, water-soluble (inhibition titre, dilution series in CSL); format: cell-based; details: standard formulation: Rewopal MPG 40 25.0 g, aromatic alcohol 10 mmol, dem. water to 100 g, pH 7.0
// reported MIC (minimum inhibiting concentration) P. funi. for each item listed
Write the answer as a number in μmol/100 ml test solution, unit excluded.

Would you please look over these solved cases?
>>> df
                                   compound  experimental_value
0                        CC(C)(CO)Cc1ccccc1                 313
1  OCCCc1ccccc1 [Alcohol 1, 3-phenyl propanol, reference compound]                 313

Look up MIC (minimum inhibiting concentration) P. funi. for this compound: Cc1cccc(CC(C)(C)CO)c1
156

Look up MIC (minimum inhibiting concentration) P. funi. for this compound: CCCCCC(=Cc1ccccc1)CO
313

// data source = patent EP0799174B1
